Every entry's value here was drawn from patent US7799785B2.

I'd appreciate it if you could supply melting point values for the items below.

Below, 3 molecules whose answers are already recorded.
Fc1ccc2c(c1)[C@@H]1[C@H](C[C@@H]3CNC(=S)N31)c1ccccc1C2 [compound 8]; 150 to 151 °C
N[C@@H]1CO[C@H]2c3cc(F)ccc3Cc3ccccc3[C@H]2C1 [compound 30]; 74 to 76 °C
CN1CC(=O)N2[C@H](C[C@@H]3c4ccccc4Cc4ccc(F)cc4[C@H]32)C1 [compound 13]; 139 to 141 °C

Kindly review the next molecule as well.
The value of melting point measured for the molecule O=C1CO[C@H]2c3cc(F)ccc3Cc3ccccc3[C@H]2C1 [compound 31] turned out to be 146 to 148 °C

====

pIC50 values recorded for human Dopamine D2L receptor (Homo sapiens, UniProt P14416)
Numbers only, as −log10 of the molar value.

CN(C)C[C@H]1C[C@@H]2c3ccccc3Cc3ccc(F)cc3[C@H]2N1C=O [36c]; 5.31

Kindly review the next compound as well.
The value of pIC50 measured for the compound CN(CCO)C[C@H]1C[C@@H]2c3ccccc3Cc3ccc(F)cc3[C@H]2N1 [43b] turned out to be 6.36
